- Tested on: Saccharomyces cerevisiae BY4741 SeMeCo community
- experiment: z-score of subpopulation abundance vs DMSO median, subpopulation auxotrophic for LUM; higher = larger share of this subpopulation than in DMSO controls
- condition_context: 10 µM; 24 h; SM minimal medium; subpopulation (auxotrophy): LUM
Structures can show the parent of a compound that is named as a salt.
Values of z-score of subpopulation abundance greater than or equal to 0.5 map to condition met; values below map to condition not met.

COc1cc(O)c(C(=O)Nc2nc(C(=O)NCCN(C(C)C)C(C)C)cs2)cc1OC [Acotiamide hydrochloride]; condition not met
C[C@@H](CN1CC(=O)NC(=O)C1)N1CC(=O)NC(=O)C1 [Dexrazoxane HCl (ICRF-187, ADR-529)]; condition not met

Prompt: Check this molecule for z-score of subpopulation abundance at or above 0.5: Cc1ccc(O)c([C@H](CCN(C(C)C)C(C)C)c2ccccc2)c1 [Tolterodine tartrate]
Completion: condition met

Prompt: Check this molecule for z-score of subpopulation abundance at or above 0.5: C[C@@H](O)[C@H]1C(=O)N2C(C(=O)O)=C(S[C@@H]3CN[C@H](C(=O)N(C)C)C3)[C@H](C)[C@H]12 [Meropenem Trihydrate]
Completion: condition not met

Prompt: Check this molecule for z-score of subpopulation abundance at or above 0.5: C=C[C@H]1CN2CC[C@H]1C[C@H]2[C@H](O)c1ccnc2ccc(OC)cc12 [Quinine HCl Dihydrate]
Completion: condition met

Prompt: Check this molecule for z-score of subpopulation abundance at or above 0.5: CC[C@H]1OC(=O)[C@H](C)[C@@H](O[C@H]2C[C@@](C)(OC)[C@@H](O)[C@H](C)O2)[C@H](C)[C@@H](O[C@@H]2O[C@H](C)C[C@H](N(C)C)[C@H]2O)[C@](C)(O)C[C@@H](C)/C(=N\OCOCCOC)[C@H](C)[C@@H](O)[C@]1(C)O [Roxithromycin]
Completion: condition met

Prompt: Check this molecule for z-score of subpopulation abundance at or above 0.5: Cn1c([N+](=O)[O-])cnc1COC(N)=O [Ronidazole]
Completion: condition not met

---

- Tested on: Saccharomyces cerevisiae BY4741 SeMeCo community
- experiment: z-score of subpopulation abundance vs DMSO median, subpopulation auxotrophic for HM; higher = larger share of this subpopulation than in DMSO controls
- condition_context: 10 µM; 24 h; SM minimal medium; subpopulation (auxotrophy): HM
Where a name gives a salt, the structure may show the parent alone.
Values of z-score of subpopulation abundance greater than or equal to -0.2 map to Yes; values below map to No.

Below, 6 compounds whose answers are already recorded.
CN(C)CCCN1c2ccccc2Sc2ccccc21 [Promazine hydrochloride]; Yes
CC(C)C(=O)Oc1ccc(CO)cc1[C@H](CCN(C(C)C)C(C)C)c1ccccc1 [Fesoterodine Fumarate]; No
N#Cc1ccc2[nH]cc(CCCCN3CCN(c4ccc5oc(C(N)=O)cc5c4)CC3)c2c1 [Vilazodone]; Yes
COc1cc(N)c(Cl)cc1C(=O)NC1CCN(CCCOc2ccc(F)cc2)CC1OC (configuration not stated) [Cisapride]; No
CC(=O)[C@H]1CC[C@H]2[C@@H]3CC=C4C[C@@H](O)CC[C@]4(C)[C@H]3CC[C@]12C; No
CC(C)(C)C(=O)OCOC(=O)[C@@H]1N2C(=O)[C@@H](/N=C/N3CCCCCC3)[C@H]2SC1(C)C [Pivmecillinam hydrochloride]; No

Consider the additional compound presented here.
Prompt: Check this compound for z-score of subpopulation abundance at or above -0.2: CC[C@H](C)C(=O)O[C@H]1C[C@H](O)C=C2C=C[C@H](C)[C@H](CC[C@@H](O)C[C@@H](O)CC(=O)O)[C@H]21
Completion: Yes

---

- Tested on: Saccharomyces cerevisiae BY4741 SeMeCo community
- experiment: z-score of subpopulation abundance vs DMSO median, subpopulation auxotrophic for LU; higher = larger share of this subpopulation than in DMSO controls
- condition_context: 10 µM; 24 h; SM minimal medium; subpopulation (auxotrophy): LU
Values of z-score of subpopulation abundance greater than or equal to -0.2 map to MET; values below map to NOT MET.

Below, 5 compounds whose answers are already recorded.
CN1CCCN=C1/C=C/c1cccc(O)c1 [Oxantel Pamoate]; NOT MET
CCOC(=O)OC(C)OC1=C(C(=O)Nc2ccccn2)N(C)S(=O)(=O)c2ccccc21 (stereo not drawn); NOT MET
CO[C@@]1(NC(=O)C(C(=O)O)c2ccc(O)cc2)C(=O)N2C(C(=O)O)=C(CSc3nnnn3C)CO[C@@H]21 (stereo partly drawn) [Latamoxef sodium]; MET
COc1cccc2c1C(=O)c1c(O)c3c(c(O)c1C2=O)C[C@@](O)(C(=O)CO)C[C@@H]3O[C@H]1C[C@H](N)[C@H](O[C@@H]2CCCCO2)[C@H](C)O1; MET
CCCCN(CCCC)CC(O)c1cc(Cl)cc2c1-c1ccc(Cl)cc1/C2=C/c1ccc(Cl)cc1 (stereo not drawn); MET

Consider the additional compound presented here.
Prompt: Check this compound for z-score of subpopulation abundance at or above -0.2: CC(=O)N1CCN(c2ccc(OCC3COC(Cn4ccnc4)(c4ccc(Cl)cc4Cl)O3)cc2)CC1 (stereo not drawn)
Completion: NOT MET

---

- System: Saccharomyces cerevisiae BY4741 SeMeCo community
- experiment: z-score of subpopulation abundance vs DMSO median, subpopulation auxotrophic for LU; higher = larger share of this subpopulation than in DMSO controls
- condition_context: 10 µM; 24 h; SM minimal medium; subpopulation (auxotrophy): LU
Structures can show the parent of a compound that is named as a salt.
Values of z-score of subpopulation abundance greater than or equal to 0.3 map to YES; values below map to NO.

O=C1Nc2ccccc2C1=O; YES
CN1C(C(=O)Nc2ccccn2)=C(O)c2sc(Cl)cc2S1(=O)=O; NO
O=C(O)c1cc(O)c2c(c1)[C@H]([C@H]1c3cc(C(=O)O)cc(O)c3C(=O)c3c(O[C@@H]4O[C@H](CO)[C@@H](O)[C@H](O)[C@H]4O)cccc31)c1cccc(O[C@@H]3O[C@H](CO)[C@@H](O)[C@H](O)[C@H]3O)c1C2=O [Sennoside A]; NO
CC(C(=O)O)c1ccc2c(c1)CC(=O)c1ccccc1S2 (stereo not drawn); NO
COc1ccc(C2CNC(=O)C2)cc1OC1CCCC1 (stereo not drawn) [S- (+)-Rolipram]; NO

Prompt: Check this molecule for z-score of subpopulation abundance at or above 0.3: O=C(O)Cc1ccccc1Nc1c(Cl)cccc1Cl [Diclofenac Sodium]
Completion: NO

Prompt: Check this molecule for z-score of subpopulation abundance at or above 0.3: CCCCCCCCOc1ccccc1C(=O)Nc1ccc(C(=O)OCC[N+](C)(CC)CC)cc1 [Otilonium Bromide]
Completion: YES

Prompt: Check this molecule for z-score of subpopulation abundance at or above 0.3: CN[C@@H]1[C@H](O[C@H]2[C@H](O[C@H]3[C@H](O)[C@@H](O)[C@H](N=C(N)N)[C@@H](O)[C@@H]3N=C(N)N)O[C@@H](C)[C@]2(O)C=O)O[C@@H](CO)[C@H](O)[C@H]1O [Streptomycin sulfate]
Completion: NO

---

- System: Saccharomyces cerevisiae BY4741 SeMeCo community
- experiment: z-score of subpopulation abundance vs DMSO median, subpopulation auxotrophic for LU; higher = larger share of this subpopulation than in DMSO controls
- condition_context: 10 µM; 24 h; SM minimal medium; subpopulation (auxotrophy): LU
assay_endpoint: z-score of subpopulation abundance
Simply state the number, no unit and no words.

CC[C@H](C)[C@H](N)C1=N[C@H](C(=O)N[C@@H](CC(C)C)C(=O)N[C@H](CCC(=O)O)C(=O)N[C@H](C(=O)N[C@H]2CCCCNC(=O)[C@H](CC(N)=O)NC(=O)[C@@H](CC(=O)O)NC(=O)[C@H](Cc3cnc[nH]3)NC(=O)[C@@H](Cc3ccccc3)NC(=O)[C@H]([C@@H](C)CC)NC(=O)[C@@H](CCCN)NC2=O)[C@@H](C)CC)CS1; 0.64
CC(=O)[O-].[K+] [Potassium acetate]; -0.01

Next molecule, please.
Prompt: Give the reported z-score of subpopulation abundance for this molecule. Cn1c(=O)c2c(ncn2CC(O)CO)n(C)c1=O (stereo not drawn)
Completion: -0.11

---

- Tested on: Saccharomyces cerevisiae BY4741 SeMeCo community
- experiment: z-score of subpopulation abundance vs DMSO median, subpopulation auxotrophic for L; higher = larger share of this subpopulation than in DMSO controls
- condition_context: 10 µM; 24 h; SM minimal medium; subpopulation (auxotrophy): L
Structures can show the parent of a compound that is named as a salt.
The entries below are paired with their reported z-score of subpopulation abundance.

C=CC[N+]1([C@H]2C[C@H]3[C@@H]4CC[C@H]5C[C@H](O)[C@@H](N6CCOCC6)C[C@]5(C)[C@H]4CC[C@]3(C)[C@H]2OC(C)=O)CCCC1 [Rocuronium Bromide]; 0.67
C[C@]12CC[C@@H]3c4ccc(O)cc4CC[C@H]3[C@@H]1CCC2=O; 0.44
CCCCOc1cc(C(=O)NCCN(CC)CC)c2ccccc2n1 [Dibucaine HCl]; -0.47
CCCOc1ccc2[nH]c(NC(=O)OC)nc2c1; 0.1
COc1ccc(C(C)=O)c(O)c1; 0.17

Prompt: Give the reported z-score of subpopulation abundance for this molecule. Oc1cccc(O)c1
Completion: -0.23

Prompt: Give the reported z-score of subpopulation abundance for this molecule. COc1nc2ccc(Br)cc2cc1[C@@H](c1ccccc1)[C@@](O)(CCN(C)C)c1cccc2ccccc12 [Bedaquiline fumarate]
Completion: -0.13
